Data origin, for the record: ChEMBL document CHEMBL5042538

- measured on: CYP3A4 (Homo sapiens, UniProt P08684)
- Sequence (P08684 whole entry): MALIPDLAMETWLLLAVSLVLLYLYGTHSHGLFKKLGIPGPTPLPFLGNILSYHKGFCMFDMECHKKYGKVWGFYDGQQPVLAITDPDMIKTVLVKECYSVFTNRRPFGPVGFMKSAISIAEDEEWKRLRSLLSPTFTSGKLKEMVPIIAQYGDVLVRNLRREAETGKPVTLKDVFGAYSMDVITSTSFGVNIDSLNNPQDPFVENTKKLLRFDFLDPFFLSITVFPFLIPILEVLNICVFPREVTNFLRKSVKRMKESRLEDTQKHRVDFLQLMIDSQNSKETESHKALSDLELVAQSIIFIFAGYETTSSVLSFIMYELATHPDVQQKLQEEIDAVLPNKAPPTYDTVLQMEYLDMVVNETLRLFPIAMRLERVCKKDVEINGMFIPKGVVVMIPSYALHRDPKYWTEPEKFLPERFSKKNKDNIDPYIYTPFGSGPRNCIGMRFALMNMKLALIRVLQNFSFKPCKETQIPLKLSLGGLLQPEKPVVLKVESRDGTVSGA
- assay protocol: Time dependent inhibition of CYP3A4 in human liver microsomes assessed as enzyme remaining activity at 2.5 uM using midazolam as substrate preincubated for 30 mins in presence of NADPH-generating system relative to control
- Format: ADME
- measurement setup: probe midazolam, read-out: TDI
measured parameter: activity at 30 min, 2.5 µM (%)

C[C@]12CCC(=O)C[C@H]1CC[C@@H]1[C@@H]2CC[C@]2(C)[C@@H](c3ccc(=O)oc3)CC[C@]12O : 19.7

---

- measured on: CYP3A4 (Homo sapiens)
- assay protocol: Inactivation of recombinant human CYP3A4 at 0.1 uM for 10 mins relative to control
- Assay type: ADME
measured parameter: inhibition at 10 min, 0.1 µM (%)

C[C@]12CCC(=O)C[C@H]1CC[C@@H]1[C@@H]2CC[C@]2(C)[C@@H](c3ccc(=O)oc3)CC[C@]12O : 50

---

- measured on: CYP3A7 (Homo sapiens)
- Sequence (P24462 whole entry): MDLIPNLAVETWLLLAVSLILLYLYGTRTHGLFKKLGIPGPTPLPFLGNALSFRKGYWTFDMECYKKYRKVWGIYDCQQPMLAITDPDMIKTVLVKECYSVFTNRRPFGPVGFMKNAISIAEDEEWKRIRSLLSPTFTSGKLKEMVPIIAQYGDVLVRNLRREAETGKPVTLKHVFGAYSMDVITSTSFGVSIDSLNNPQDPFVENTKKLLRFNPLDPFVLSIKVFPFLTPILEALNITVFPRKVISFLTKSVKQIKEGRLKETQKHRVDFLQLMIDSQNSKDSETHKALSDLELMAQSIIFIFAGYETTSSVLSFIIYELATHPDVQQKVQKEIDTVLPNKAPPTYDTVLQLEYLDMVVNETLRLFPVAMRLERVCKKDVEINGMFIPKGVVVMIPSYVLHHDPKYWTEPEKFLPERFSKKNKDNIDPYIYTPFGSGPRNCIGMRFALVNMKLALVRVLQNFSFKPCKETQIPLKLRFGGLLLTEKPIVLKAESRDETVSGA
- assay protocol: Ratio of IC50 for time dependent inhibition of recombinant human CYP3A7 incubated for 30 mins by LC-MS/MS analysis to IC50 for time dependent inhibition of recombinant human CYP3A7 using midazolam as substrate preincubated for 30 mins in presence of NADPH-generating system followed by substrate addition further incubated for 30 mins by LC-MS/MS analysis
- measurement setup: recombinant human CYP3A7, probe midazolam, read-out: Ratio IC50
measured parameter: IC50 shift at 0.5 h

C[C@]12CCC(=O)C[C@H]1CC[C@@H]1[C@@H]2CC[C@]2(C)[C@@H](c3ccc(=O)oc3)CC[C@]12O : 17.5

---

- System: CYP3A
- assay protocol: Inactivation of CYP3A in human liver microsomes using midazolam as substrate assessed as enzyme remaining activity in presence of glutathione
- Type: ADME
- measurement setup: probe midazolam, read-out: INH
measured parameter: activity (%)

C[C@]12CCC(=O)C[C@H]1CC[C@@H]1[C@@H]2CC[C@]2(C)[C@@H](c3ccc(=O)oc3)CC[C@]12O : 43.8

---

- measured on: CYP3A5 (Homo sapiens, UniProt P20815)
- Sequence (P20815 whole entry): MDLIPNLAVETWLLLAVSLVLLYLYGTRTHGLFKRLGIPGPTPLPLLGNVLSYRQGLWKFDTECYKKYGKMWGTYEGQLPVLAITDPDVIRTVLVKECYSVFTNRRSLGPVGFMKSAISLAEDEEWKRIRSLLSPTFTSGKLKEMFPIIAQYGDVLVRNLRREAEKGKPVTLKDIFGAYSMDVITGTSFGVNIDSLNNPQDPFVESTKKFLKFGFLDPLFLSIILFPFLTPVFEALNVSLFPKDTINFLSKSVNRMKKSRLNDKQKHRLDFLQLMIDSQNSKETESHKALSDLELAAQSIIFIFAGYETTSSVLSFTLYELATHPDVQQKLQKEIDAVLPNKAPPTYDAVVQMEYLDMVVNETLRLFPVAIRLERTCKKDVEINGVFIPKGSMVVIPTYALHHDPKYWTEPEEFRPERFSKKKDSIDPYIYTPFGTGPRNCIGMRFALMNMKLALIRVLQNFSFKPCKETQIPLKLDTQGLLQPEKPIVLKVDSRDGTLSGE
- assay protocol: Ratio of IC50 for time dependent inhibition of recombinant human CYP3A5 incubated for 30 mins by LC-MS/MS analysis to IC50 for time dependent inhibition of recombinant human CYP3A5 using midazolam as substrate preincubated for 30 mins in presence of NADPH-generating system followed by substrate addition further incubated for 30 mins by LC-MS/MS analysis
- measurement setup: recombinant human CYP3A5, probe midazolam, read-out: Ratio IC50
measured parameter: IC50 shift at 0.5 h

C[C@]12CCC(=O)C[C@H]1CC[C@@H]1[C@@H]2CC[C@]2(C)[C@@H](c3ccc(=O)oc3)CC[C@]12O : 5.87

---

- measured on: Cytochrome P450 3A7 (Homo sapiens)
- Sequence (P24462 whole entry): as the sequence (P24462 whole entry) above
- assay protocol: Time dependent inhibition of recombinant human CYP3A7 using midazolam as substrate preincubated for 30 mins in presence of NADPH generating system followed by substrate addition incubated for 30 mins by LC-MS/MS analysi
- Type: ADME
pIC50: −log10 of the molar value.
measured parameter: pIC50

C[C@]12CCC(=O)C[C@H]1CC[C@@H]1[C@@H]2CC[C@]2(C)[C@@H](c3ccc(=O)oc3)CC[C@]12O : 4.19

---

Known IC50 shift at 0.5 h of a selection of compounds
- Test system: CYP3A
- assay protocol: Ratio of IC50 for time dependent inhibition of CYP3A in human liver microsomes incubated for 30 mins by LC-MS/MS analysis to IC50 for time dependent inhibition of CYP3A in human liver microsomes using midazolam as substrate preincubated for 30 mins in presence of NADPH-generating system followed by substrate addition further incubated for 30 mins by LC-MS/MS analysis
- measurement setup: probe midazolam, read-out: Ratio IC50
measured parameter: IC50 shift at 0.5 h

C[C@]12CCC(=O)C[C@H]1CC[C@@H]1[C@@H]2CC[C@]2(C)[C@@H](c3ccc(=O)oc3)CC[C@]12O : 12.3
CC(=O)O[C@H]1[C@H]2O[C@]23[C@@H]2CC[C@@H]4CC(=O)CC[C@]4(C)[C@H]2CC[C@]3(C)[C@H]1c1ccc(=O)oc1 : 24.8
C[C@]12CCC(=O)C[C@H]1CC[C@@H]1[C@@H]2CC[C@]2(C)[C@@H](c3ccc(=O)oc3)C[C@H]3O[C@]132 : 11.4
